All figures here come from patent US5789448A.

system: KB cells of human rhinopharyngeal cancer; assay: Cancer cell growth inhibiting activity (KB cells, MTT); type: cell-based; conditions: KB, read-out: Cancer cell growth inhibiting activity (IC50)
Kindly note that classification relies on IC50 with these boundaries: small value = under 600 nM, mid value = from 600 nM up to 2000 nM, large value = 2000 nM and over

IN: Tag the class for COc1cc(C(=O)C=C(C(C)(C)N2CCCCC2)S(=O)(=O)c2ccccc2)cc2c1OCO2
OUT: mid value

IN: Try this molecule next: COc1ccc(C(=O)C=C(CN(C(C)C)C(C)C)S(=O)(=O)c2ccccc2)cc1OC
OUT: large value

IN: Try this molecule next: COC(=O)C=CC(=O)c1ccc(OC)c(OC)c1
OUT: mid value

IN: Try this molecule next: COc1ccc(C(=O)C=CCN2CCCCC2)cc1OC
OUT: large value

IN: Try this molecule next: CCN(CC)C(C)(C)C(=CC(=O)c1ccc(OC)c(OC)c1)S(=O)(=O)c1ccc([N+](=O)[O-])cc1
OUT: small value

IN: Try this molecule next: CCN(CC)C(C)(C)C(=CC(=O)c1ccc(OC)c(OC)c1)S(=O)(=O)c1cccs1
OUT: mid value

IN: Try this molecule next: CC(C(=O)Nc1ccccc1)=C(C)C(=O)c1ccccc1
OUT: small value

IN: Try this molecule next: CCN(CC)C(C)(C)C(=CC(=O)c1ccc(OC)c(OC)c1)S(=O)(=O)c1ccc(C)cc1
OUT: small value

IN: Try this molecule next: COc1ccc(C(=O)C=CC#N)cc1OC
OUT: mid value

IN: Try this molecule next: CCN(CC)C(C)(C)C(=CC(=O)c1ccc(OC)c(OC)c1)S(=O)(=O)c1ccccc1
OUT: mid value

IN: Try this molecule next: COC(=O)C=CC(=O)c1ccc(OC)cc1
OUT: large value

---

Exercise: state measured log10 IC50 for each of the molecules provided.
biological target: human EGF (epithelial cell growth factor) receptor tyrosine kinase (Homo sapiens, UniProt P00533); construct: to obtain an A431 cell membrane fraction, and this fraction was provided for measurement as a partially purified EGF receptor; endogenous in cells; assay: Tyrosine kinase inhibiting activity (EGF receptor partially purified from A431 cell membrane fraction, RR-SRC peptide substrate, gamma-32P-ATP); settings: 10 μM ATP, 1% DMSO, in ice for 30 minutes
Sequence (P00533 25-1210): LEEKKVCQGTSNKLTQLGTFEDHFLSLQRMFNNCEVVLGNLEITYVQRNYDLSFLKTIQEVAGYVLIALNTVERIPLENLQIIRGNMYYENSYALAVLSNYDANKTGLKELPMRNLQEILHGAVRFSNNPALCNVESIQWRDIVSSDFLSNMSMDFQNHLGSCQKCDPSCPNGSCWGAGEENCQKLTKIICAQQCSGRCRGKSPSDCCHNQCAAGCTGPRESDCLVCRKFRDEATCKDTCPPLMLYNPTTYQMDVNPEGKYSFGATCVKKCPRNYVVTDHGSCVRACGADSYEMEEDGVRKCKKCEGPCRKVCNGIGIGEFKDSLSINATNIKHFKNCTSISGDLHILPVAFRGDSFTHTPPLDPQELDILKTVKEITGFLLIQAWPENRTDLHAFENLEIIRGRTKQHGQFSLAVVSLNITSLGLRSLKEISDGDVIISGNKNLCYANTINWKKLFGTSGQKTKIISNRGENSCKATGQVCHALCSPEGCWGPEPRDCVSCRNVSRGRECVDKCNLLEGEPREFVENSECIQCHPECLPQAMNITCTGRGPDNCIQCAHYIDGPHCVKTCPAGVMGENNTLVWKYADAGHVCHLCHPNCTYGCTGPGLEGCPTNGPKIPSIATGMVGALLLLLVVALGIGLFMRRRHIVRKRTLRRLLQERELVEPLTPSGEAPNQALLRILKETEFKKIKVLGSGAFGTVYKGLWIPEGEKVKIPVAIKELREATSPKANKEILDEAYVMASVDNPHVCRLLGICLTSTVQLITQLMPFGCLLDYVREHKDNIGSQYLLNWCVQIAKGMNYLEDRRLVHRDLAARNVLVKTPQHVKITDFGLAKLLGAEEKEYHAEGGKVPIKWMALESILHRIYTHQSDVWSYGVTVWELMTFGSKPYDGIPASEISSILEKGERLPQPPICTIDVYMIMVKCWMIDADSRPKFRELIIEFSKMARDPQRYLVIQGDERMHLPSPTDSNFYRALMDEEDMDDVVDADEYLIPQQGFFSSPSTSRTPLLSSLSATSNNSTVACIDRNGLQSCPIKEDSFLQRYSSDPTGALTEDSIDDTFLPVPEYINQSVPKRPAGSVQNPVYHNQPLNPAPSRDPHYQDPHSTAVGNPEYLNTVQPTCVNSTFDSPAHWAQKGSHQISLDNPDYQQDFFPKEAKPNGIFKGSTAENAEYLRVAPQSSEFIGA
Base-10 log of IC50, unit µM.

IN: What measured log10 IC50 goes with CCN(CC)C(C)(C)C(=CC(=O)c1ccc(OC)c(OC)c1)S(=O)(=O)c1ccc(C)cc1 [compound 293] ?
OUT: 0.04

IN: Try this molecule next: CCN(CC)C(C)(C)C(=CC(=O)c1ccc(OC)c(OC)c1)S(=O)(=O)c1cccs1 [compound 352]
OUT: -0.33

IN: Try this molecule next: CC(C(=O)Nc1ccccc1)=C(C)C(=O)c1ccccc1 [compound 253]
OUT: 1.58

IN: Try this molecule next: COC(=O)C=CC(=O)c1ccc(OC)cc1 [compound 29]
OUT: 0.97

IN: Try this molecule next: COc1ccc(C(=O)C=CC#N)cc1OC [compound 5]
OUT: -0.47

IN: Try this molecule next: COC(=O)C=CC(=O)c1ccc(OC)c(OC)c1 [compound 26]
OUT: -0.07

IN: Try this molecule next: COc1ccc(C(=O)C=C(C(C)(C)N2CCC(C)CC2)S(=O)(=O)c2ccccc2)cc1OC [compound 327]
OUT: 1.44

IN: Try this molecule next: COc1cc(C(=O)C=C(C(C)(C)N2CCCCC2)S(=O)(=O)c2ccccc2)cc2c1OCO2 [compound 290]
OUT: 0.70

IN: Try this molecule next: COc1ccc(C(=O)C=CCN2CCCCC2)cc1OC [compound 97]
OUT: 0.91
